A collection of compounds and their measured NADPH fluorescence slope
# system_name: Voltage-gated potassium channel subunit beta-2 (Rattus norvegicus)
# test_protocol: KvBeta positive modulators, primary screen, biochemical, NADPH fluorescence (AID 623);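 note: fluorescence intensity change per second fitted from 20 to 320 s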
# experimental_parameters: Recombinant KvBeta, NADPH fluorescence decrease slope, 10 min; at 10 µM; stronger effect = lower value
Active and inactive are the calls of the source.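 Rule for the calls: active = NADPH fluorescence slope more negative than the mean of all samples by about 3 SD, 99.7% confidence; inactive = the rest.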

CC1(C)CC(=O)c2cc(C(=O)N3CCCC(C)(C)C3)c(=O)n(-c3ccccc3)c2C1 ... -0.000165 (inactive)
COC(=O)CSc1ncnc2c1sc1nc(-c3ccco3)c3c(c12)CC(C)(C)OC3 ... -2e-06 (inactive)
Cc1cccc(COc2ccc(/C(O)=C3\C(=O)C(=O)N(CCN(C)C)C3c3ccncc3)cc2)c1 (configuration not stated) ... -0.000161 (inactive)
CCOCCSc1nc2c(c(=O)[nH]c(=O)n2C)n1CCCc1ccccc1 ... -6.3e-05 (inactive)
Cc1cc(NC(=O)C2=C(O)c3ccccc3S(=O)(=O)N2C)no1 ... -2.2e-05 (inactive)

The record that follows has no NADPH fluorescence slope shown yet.
// Input: "Cc1ccc2c(c1)[C@@H]1CN(C)CC[C@@H]1N2S(=O)(=O)c1ccc(F)cc1" . Output its NADPH fluorescence slope only.
-2.1e-06 (inactive)
